Method: Pharmacokinetics in male Wistar rats (i.v. and p.o.)
Assay type: in vivo
Experimental Conditions: rat, iv; male Wistar rats, 3 mg/Kg i.v., plasma
Observed Property: MRT (h)

>>> endpoint_result("Cc1cc(SCc2sc(-c3ccc(C(F)(F)F)cc3)nc2C)ccc1OCC(=O)O")
4.3

###

Consider the following compounds and their measured MRT readings.
Method: Pharmacokinetics in male CD-1 mice (i.v. and p.o.)
Type: in vivo
Experimental Conditions: male, mouse, iv; CD-1 mice, 3 mg/Kg i.v., plasma
Observed Property: MRT (h)

>>> endpoint_result("Cc1cc(SCc2sc(-c3ccc(C(F)(F)F)cc3)nc2C)ccc1OCC(=O)O [GW501516]")
4.96
>>> endpoint_result("O=C(O)CCCCCOc1ccccc1CN(C(=O)c1ccc(-c2ccco2)cc1)C1CC1 [compound 12]")
0.12

###

Consider the following compounds and their measured EC50 readings.
Assay Target: Human PPARδ LBD (Homo sapiens, UniProt Q03181)
Construct: (PPARδ amino acid 128 to C-terminus); expressed in transfected cells; host or cells: CV-1 cells
Method: PPARδ activity screen (GAL4-PPARδ LBD luciferase transactivation in CV-1 cells)
Assay type: cell-based
Experimental Conditions: EC50 nM, Table 1; CV-1 cells, GAL4-PPARδ LBD luciferase reporter, compound 24 h
Observed Property: EC50 (nM)

>>> endpoint_result("O=C(O)CCCCCOc1ccccc1CN(C(=O)c1ccc(-c2ccccc2)cc1)C1CCCC1")
405
>>> endpoint_result("O=C(O)CCCCCOc1ccccc1CN(C(=O)c1ccc(-c2ccc(C(F)(F)F)cc2)cc1)C1CC1")
1760
>>> endpoint_result("CC(C)N(Cc1ccccc1OCCCCCC(=O)O)C(=O)c1ccc(-c2cccnc2)cc1")
1240
>>> endpoint_result("O=C(O)CCCCCOc1ccccc1CN(C(=O)c1ccc(-c2ccccc2)cc1)C1CC1")
115

###

Consider the following compounds and their measured C0 readings.
Method: Pharmacokinetics in male CD-1 mice (i.v. and p.o.)
Format: in vivo
Experimental Conditions: male, mouse, iv; CD-1 mice, 3 mg/Kg i.v., plasma
Observed Property: C0 (ng/mL)

>>> endpoint_result("O=C(O)CCCCCOc1ccccc1CN(C(=O)c1ccc(-c2ccco2)cc1)C1CC1")
1940
>>> endpoint_result("Cc1cc(SCc2sc(-c3ccc(C(F)(F)F)cc3)nc2C)ccc1OCC(=O)O")
5560

###

Assay Target: Human PPARδ LBD (Homo sapiens)
Construct: (PPARδ amino acid 128 to C-terminus); expressed in transfected cells; host or cells: CV-1 cells
Sequence (Q03181 128-441 limits assumed): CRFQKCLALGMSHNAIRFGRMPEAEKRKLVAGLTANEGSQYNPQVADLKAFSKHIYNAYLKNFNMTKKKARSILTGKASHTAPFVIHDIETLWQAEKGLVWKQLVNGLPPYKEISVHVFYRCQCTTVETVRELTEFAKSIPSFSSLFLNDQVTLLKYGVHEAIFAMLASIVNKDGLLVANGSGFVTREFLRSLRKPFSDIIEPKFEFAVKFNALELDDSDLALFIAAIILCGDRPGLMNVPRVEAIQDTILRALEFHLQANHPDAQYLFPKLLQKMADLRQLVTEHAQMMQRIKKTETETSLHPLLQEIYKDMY
Method: PPARδ activity screen (GAL4-PPARδ LBD luciferase transactivation in CV-1 cells)
Format: cell-based
Experimental Conditions: PPARd, EC50 (nM) (from Salk), Table 15
Observed Property: EC50 (nM)

>>> endpoint_result("CCC(C)N(Cc1ccccc1OCCCCCC(=O)O)C(=O)c1ccc(-c2ccco2)cc1 (centres unmarked)")
41
>>> endpoint_result("CC(C)N(Cc1ccccc1OCCCCCC(=O)O)C(=O)c1ccc(-c2ccccc2)cc1")
42
